Data provenance is patent US10906946B2.

# study.target: human α-thrombin (Homo sapiens)
# Construct: residues in the termini of the light chain; purchased Chemo-Sero-Therapeutic Research Institute (Kaketsuken, Japan), as a gift, not bought
# assay.explanation: Thrombin amidolytic activity assay with chromogenic substrate S2238
# Format: biochemical
# condition.summary: Table 4, members of variegin family; read-out: IC50
value.type: pIC50
Schema: pIC50 number; meaning minus log10 of the concentration expressed in molar units.

Exam item: Which pIC50 is reported with human α-thrombin (Homo sapiens) for this entry: SDVAPADYESDEGDNDGGHDGSEVAKPKMPRGNGGGGDFEEIPEVE [Rhipicephalus sanguineus] ?
Marked response: 7.37
